test-target: T1, human IL-22 (human, UniProt Q9GZX6 34-179)
T1 sequence: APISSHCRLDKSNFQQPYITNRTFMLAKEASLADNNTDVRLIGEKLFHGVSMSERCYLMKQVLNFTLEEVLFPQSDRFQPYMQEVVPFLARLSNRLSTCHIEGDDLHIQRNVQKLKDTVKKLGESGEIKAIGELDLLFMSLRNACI
protocol-text: cell-based or functional assay
result-type: IC50 of scFv (pM) in BaF3-IL-22 proliferation assay
Answers are plain numbers, in pM.

INPUT: Field request: IC50 of scFv (pM) in BaF3-IL-22 proliferation assay | item: 062G05 scFv (non-germlined) (scFv) scFv: QVQLVESGAEVKKPGASVKVSCKASGYTFTSYGISWVRQAPGQGLEWMGWISAYTGNTNYAQKFQGRVTMTTDTSTSTAYMELRSLRSDDTAVYYCARDRGYYDAFDIWGQGTLVTVSSGGGGSGGGGSGGGGSDIQMTQSPSTLSASIGDRVTITCRASEGIYHWLAWYQQKPGKAPKLLIYKASSLASGAPSRFSGSGFGTDFTLTISSLQPDDFATYYCQQMGEWKAAFGGGTKLEIKRAAAH
OUTPUT: 182

Values were extracted from patent US20070258982A1.
